Listed compounds paired with reported IC50
Biological target: human CCR7 (Homo sapiens)
Construct: expressed in transfected cells
Sequence (P32248 25-378): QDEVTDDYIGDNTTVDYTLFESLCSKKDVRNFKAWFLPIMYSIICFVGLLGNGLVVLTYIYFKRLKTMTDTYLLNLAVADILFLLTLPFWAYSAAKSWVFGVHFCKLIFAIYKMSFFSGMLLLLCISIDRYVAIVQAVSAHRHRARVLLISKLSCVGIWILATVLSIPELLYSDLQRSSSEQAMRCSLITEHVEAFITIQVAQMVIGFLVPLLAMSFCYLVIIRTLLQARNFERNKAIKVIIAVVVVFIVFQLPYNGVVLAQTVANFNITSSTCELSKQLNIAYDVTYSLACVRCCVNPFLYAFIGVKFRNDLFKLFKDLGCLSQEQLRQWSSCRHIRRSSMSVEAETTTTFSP
Assay: CCL19-induced calcium mobilization assay, U87.CD4 cells expressing CCR7
Type: cell-based
Settings: CCL19-induced calcium signaling; read-out: IC50 [μM] block CCL19 induced calcium signaling
Property measured: IC50

> print(dat)
                                    compound                system.name  property.measured   result
 1  CN(C)[C@@H]1CCCC[C@H]1NC(=S)Nc1cc(C(F)(F)F)cc(C(F)(F)F)c1  human CCR7 (Homo sapiens)               IC50  > 50 µM
 2  O=[N+]([O-])c1ccc(C(O)CNC(=S)NCc2ccc3c(c2)OCO3)cc1 (centres unmarked)  human CCR7 (Homo sapiens)               IC50  > 30 µM
 3  O=c1c(Nc2cc(C(F)(F)F)cc(C(F)(F)F)c2)c(N[C@H]2CCCC[C@@H]2N2CCCCC2)c1=O  human CCR7 (Homo sapiens)               IC50  > 50 µM
 4  CC1(C)[C@H]2CC[C@@]1(CNc1c(NCc3cc(C(F)(F)F)cc(C(F)(F)F)c3)c(=O)c1=O)[C@H](N1CCCC1)C2  human CCR7 (Homo sapiens)               IC50  > 50 µM
 5  C[C@@H](CNC(=O)Nc1ccnc(C(=O)N(C)C)c1)c1cccs1  human CCR7 (Homo sapiens)               IC50  > 50 µM
 6  Cc1cccc(N[C@H]2CS(=O)(=O)C[C@H]2OC(=O)c2ccccc2)c1  human CCR7 (Homo sapiens)               IC50  > 50 µM
 7  CC[C@@H](NC1=NS(=O)(=O)c2ccccc21)C(=O)NOC  human CCR7 (Homo sapiens)               IC50  > 50 µM
 8  COc1cccc(-c2cc(C(=O)NCc3ccco3)no2)c1 [C094, COc1cccc(-c2cc(C(=O)NCc3ccco3)no2)c1]  human CCR7 (Homo sapiens)               IC50  > 50 µM
 9  O=c1c(NCc2cc(C(F)(F)F)cc(C(F)(F)F)c2)c(NCc2cc(C(F)(F)F)cc(C(F)(F)F)c2)c1=O  human CCR7 (Homo sapiens)               IC50  > 50 µM
10  Cc1cccnc1C1(CNc2cc(N3CCC[C@H](CO)C3)ncn2)CC1  human CCR7 (Homo sapiens)               IC50  > 50 µM
11  CC[C@@H](NS(=O)(=O)NCc1ccccc1)c1cc(C)ccn1  human CCR7 (Homo sapiens)               IC50  > 50 µM
12  CC[C@@H](NC(=O)CCn1ccccc1=O)c1cc(F)ccc1F [C132, CC[C@@H](NC(=O)CCn1ccccc1=O)c1cc(F)ccc1F]  human CCR7 (Homo sapiens)               IC50  > 50 µM
13  C[C@H](Nc1c(N[C@H]2C[C@H]3CC[C@@]2(CN2CCCC2)C3(C)C)c(=O)c1=O)c1cccc2ccccc12  human CCR7 (Homo sapiens)               IC50  > 50 µM
14  Cc1ccc(N[C@H]2CS(=O)(=O)C[C@H]2OC(=O)c2ccccc2)cc1  human CCR7 (Homo sapiens)               IC50  > 50 µM
15  C[C@@H](CNC(=O)N[C@H]1CCO[C@@H](c2ccccc2)C1)c1ccsc1  human CCR7 (Homo sapiens)               IC50  > 50 µM
16  CCc1ccc(C(NC(=O)C(=O)Nc2cccnc2C)C(C)(C)C)o1 (centres unmarked)  human CCR7 (Homo sapiens)               IC50  > 10 µM
17  FC(F)(F)c1cccc(NC(=S)NCc2ccccc2C(F)(F)F)c1  human CCR7 (Homo sapiens)               IC50  > 30 µM

The reported numbers originate from paper PMC8972196.
